EXPERIMENTAL PROTOCOL: self-splicing fitness, log relative to wild type (ln ratio); higher = more splicing; Tetrahymena group I intron in knt gene, E. coli kanamycin selection, DiMSum; sequences stand for … in CUCUCU…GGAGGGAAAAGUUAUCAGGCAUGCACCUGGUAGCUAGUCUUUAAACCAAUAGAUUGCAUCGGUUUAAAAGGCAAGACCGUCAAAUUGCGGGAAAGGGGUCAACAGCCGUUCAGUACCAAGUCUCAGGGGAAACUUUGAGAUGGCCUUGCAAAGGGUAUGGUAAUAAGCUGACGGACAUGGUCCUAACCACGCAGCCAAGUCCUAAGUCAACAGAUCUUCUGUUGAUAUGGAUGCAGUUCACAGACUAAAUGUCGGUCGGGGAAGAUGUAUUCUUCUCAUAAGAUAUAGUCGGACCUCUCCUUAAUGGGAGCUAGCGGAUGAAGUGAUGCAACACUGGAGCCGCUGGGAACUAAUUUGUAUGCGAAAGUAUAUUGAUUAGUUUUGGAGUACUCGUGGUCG;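 further: selection with 25 µg/mL kanamycin versus none on LB agar overnight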
STUDY CONDITIONS: 30 °C
Classify as follows. Reported self-splicing fitness (ln) greater than or equal to -2: YES. Reported self-splicing fitness (ln) below: NO.

Observe how each entry below is paired with its result.
UGGAAGCAAUAUUACGCUGG ... YES
ACAGAGCAAUAUUACGCCCU ... NO

Q. # check: self-splicing fitness (ln) of CGCUAGCAAUAUUACGCGUG is greater than or equal to -2
A. NO

Q. Tell me whether self-splicing fitness (ln) is at least -2 here: GCCCAGCAAUAUUACGGACU
A. NO

Q. Record CCCGAGCAAUAUUACGUCUA ; criterion: self-splicing fitness (ln) no lower than -2. Met?
A. NO

Q. Would you say UGACAGCAAUAUUACGAUCG shows self-splicing fitness (ln) at minimum -2?
A. YES

* * *

Recorded self-splicing fitness (ln) by entry
EXPERIMENTAL PROTOCOL: self-splicing fitness, log relative to wild type (ln ratio); higher = more splicing; Tetrahymena group I intron in knt gene, E. coli kanamycin selection, DiMSum; sequences stand for … in CUCUCU…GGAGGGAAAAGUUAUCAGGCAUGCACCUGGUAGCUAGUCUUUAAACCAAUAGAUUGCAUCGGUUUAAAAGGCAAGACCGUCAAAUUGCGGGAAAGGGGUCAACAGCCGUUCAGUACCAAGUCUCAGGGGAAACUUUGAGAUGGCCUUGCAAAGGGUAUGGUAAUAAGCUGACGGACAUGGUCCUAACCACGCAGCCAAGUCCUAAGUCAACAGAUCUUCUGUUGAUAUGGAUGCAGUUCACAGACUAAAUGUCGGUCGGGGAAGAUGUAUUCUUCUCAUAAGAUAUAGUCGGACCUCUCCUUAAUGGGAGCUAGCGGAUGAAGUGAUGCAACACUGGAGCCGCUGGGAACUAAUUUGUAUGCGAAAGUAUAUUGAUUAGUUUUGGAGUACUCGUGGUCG
STUDY CONDITIONS: 37 °C
Enter the number alone.

GUAAAGCAAUAUUACGACAA ... -0.2
GUUGAGCAAUAUUACGCAUG ... -1.18
CGGAAGCAAUAUUACGCGGG ... -1.35
CGCAAGCAAUAUUACGGUAC ... -3.6

Entry AUCUAGCAAUAUUACGAUCG ; self-splicing fitness (ln) = -1.77

Field self-splicing fitness (ln) (entry AGGUAGCAAUAUUACGGGUU ) reads -1.72

The recorded self-splicing fitness (ln) for GAUAAGCAAUAUUACGGGUA is -1.37

The sequence UGCGAGCAAUAUUACGUUUU showed self-splicing fitness (ln) equal to -3.25

Consider GGACAGCAAUAUUACGCGUU . Its measured self-splicing fitness (ln) is -2.62

// self-splicing fitness (ln) lookup, sequence = GUCAAGCAAUAUUACGGUGU , result: -0.734

Lookup result for AAAUAGCAAUAUUACGGUUG ; measured self-splicing fitness (ln): -1.33

Recorded result, CAGAAGCAAUAUUACGUUGU , self-splicing fitness (ln): -2.81

get_value(item= UAACAGCAAUAUUACGUAGA , readout=self-splicing fitness (ln)) returns -1.37

Input CUAGAGCAAUAUUACGGACG . Output self-splicing fitness (ln): 0.427

* * *

EXPERIMENTAL PROTOCOL: self-splicing fitness, log relative to wild type (ln ratio); higher = more splicing; Tetrahymena group I intron in knt gene, E. coli kanamycin selection, DiMSum; sequences stand for … in CUCUCU…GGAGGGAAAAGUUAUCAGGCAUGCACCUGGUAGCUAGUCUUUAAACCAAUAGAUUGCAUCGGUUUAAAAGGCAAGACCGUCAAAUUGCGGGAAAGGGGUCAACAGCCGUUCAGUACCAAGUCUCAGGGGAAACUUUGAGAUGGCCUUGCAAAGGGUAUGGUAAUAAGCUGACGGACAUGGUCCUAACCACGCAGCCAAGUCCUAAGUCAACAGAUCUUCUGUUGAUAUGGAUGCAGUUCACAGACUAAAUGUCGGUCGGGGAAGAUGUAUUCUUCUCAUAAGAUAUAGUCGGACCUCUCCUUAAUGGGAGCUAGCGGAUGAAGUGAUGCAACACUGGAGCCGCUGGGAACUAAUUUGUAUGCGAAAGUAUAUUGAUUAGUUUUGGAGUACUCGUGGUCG
STUDY CONDITIONS: 37 °C
Labels assigned by self-splicing fitness (ln) range: low end (below -2), middle (-2 to below -1), high end (-1 or more)

Q. Note: place this sequence into its band. Item: GCGAAGCAAUAUUACGCCGA
A. middle

Q. # bin lookup: classify GAUUAGCAAUAUUACGAGCA by its self-splicing fitness (ln)
A. high end

Q. # bin lookup: classify GAUAAGCAAUAUUACGCGAC by its self-splicing fitness (ln)
A. middle

Q. Please indicate the class for UACUAGCAAUAUUACGUUCU based on its self-splicing fitness (ln).
A. middle

Q. Using the reported self-splicing fitness (ln), which band applies to CAUUAGCAAUAUUACGGAUA ?
A. middle

Q. Form field 'band' for UGGCAGCAAUAUUACGGUGU
A. low end

Q. Lab note: which band did CAACAGCAAUAUUACGGCCC land in?
A. low end

Q. Please let me know in which category the item AGACAGCAAUAUUACGCUUC belongs.
A. middle

Q. Band for the recorded self-splicing fitness (ln) of UCUCAGCAAUAUUACGAGAC ?
A. low end

Q. Which self-splicing fitness (ln) category applies to ACAGAGCAAUAUUACGCAAA here?
A. middle

Q. Lab log: AACUAGCAAUAUUACGACUC — assign self-splicing fitness (ln) category
A. high end

Q. Sort UGACAGCAAUAUUACGGCCA into one of the categories.
A. high end

Q. Which category does the recorded self-splicing fitness (ln) put CCGCAGCAAUAUUACGGCCU in?
A. low end

* * *

EXPERIMENTAL PROTOCOL: self-splicing fitness, log relative to wild type (ln ratio); higher = more splicing; Tetrahymena group I intron in knt gene, E. coli kanamycin selection, DiMSum; sequences stand for … in CUCUCU…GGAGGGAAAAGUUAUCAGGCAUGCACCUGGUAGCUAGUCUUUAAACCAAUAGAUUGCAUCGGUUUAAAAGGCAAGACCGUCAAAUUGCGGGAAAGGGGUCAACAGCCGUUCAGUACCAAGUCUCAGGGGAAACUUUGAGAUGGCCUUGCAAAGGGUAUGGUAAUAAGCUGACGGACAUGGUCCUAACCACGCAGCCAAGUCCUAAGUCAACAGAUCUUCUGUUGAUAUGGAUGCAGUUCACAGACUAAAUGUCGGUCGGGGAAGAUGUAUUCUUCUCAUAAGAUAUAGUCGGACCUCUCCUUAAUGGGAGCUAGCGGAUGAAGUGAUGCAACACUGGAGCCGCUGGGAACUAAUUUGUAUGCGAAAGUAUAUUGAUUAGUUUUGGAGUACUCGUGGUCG
STUDY CONDITIONS: 37 °C
EXPERIMENTAL READOUT: self-splicing fitness (ln)
Returns: the value as a bare number; no unit string appended.

Past entries and their recorded results:
UUUUAGCAAUAUUACGCCCA ... 0.00602
AGCUAGCAAUAUUACGUUUG ... -0.747
UUGCAGCAAUAUUACGUGGU ... -2.76
GUUGAGCAAUAUUACGCGAG ... -0.457
GCCCAGCAAUAUUACGGCCC ... -0.738
UGGCAGCAAUAUUACGUCCU ... 0.0307
UGACAGCAAUAUUACGGCCC ... -0.967
AGCAAGCAAUAUUACGAGAU ... -1.27
GACUAGCAAUAUUACGAACA ... -0.254
GCAAAGCAAUAUUACGAGUA ... -1.15

Recorded result, UCAUAGCAAUAUUACGCGUA , self-splicing fitness (ln): -0.884

The measured self-splicing fitness (ln) associated with CACCAGCAAUAUUACGUUCG reads -0.196

Just so you know, measured self-splicing fitness (ln) for GUUUAGCAAUAUUACGCGUU came out at -0.943

Please fill in: self-splicing fitness (ln) reported for UUAGAGCAAUAUUACGCAAG = -0.488

Entry CGCUAGCAAUAUUACGCGUA — recorded self-splicing fitness (ln) = -1.45

Record AGCGAGCAAUAUUACGUCGU . Reported self-splicing fitness (ln): -2.18

# self-splicing fitness (ln) of GGACAGCAAUAUUACGUUGC = -2.83

// self-splicing fitness (ln) value for UGCGAGCAAUAUUACGGAAG : -2.26

Reported self-splicing fitness (ln) for UGUUAGCAAUAUUACGACAU was -1.28

Sample AAUAAGCAAUAUUACGGCGC ; self-splicing fitness (ln) observed: -0.478

So, CAGUAGCAAUAUUACGGAAA ? Its self-splicing fitness (ln) was -3.19

Looking up CAGUAGCAAUAUUACGCCGU , I see its self-splicing fitness (ln) listed as -0.37

Data point: GUCUAGCAAUAUUACGAAAG ; self-splicing fitness (ln) = -2.42

Sure, the documented self-splicing fitness (ln) for UUGGAGCAAUAUUACGACCA is -1.34

Kindly note the recorded self-splicing fitness (ln) for UGUUAGCAAUAUUACGGACU , which is 0.414

// field: self-splicing fitness (ln); key: UAAUAGCAAUAUUACGUGUC ; value = -2.44
